Sourced from the Human Domainome abundance scans (Beltran et al. 2025)

B1: Zinc finger MYM-type protein 3, residues 405 to 444; numbered along this chain, Q14202 (parent)
chain: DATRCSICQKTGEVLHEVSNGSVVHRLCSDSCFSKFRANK

variants of: B1; assay: abundance fitness (aPCA) (normalised: wild type 0, dead -1); higher = more abundant; growth selection in yeast, the domain comes from the species named; conditions: Homo sapiens
Kindly state abundance fitness for each of the entries shown.
Answers are plain numbers.

Reference set, count: 5
H25S    -0.138
R4F    0.147
E13P    -0.236
S34P    -0.114
S22D    -0.432

Need abundance fitness for each of these variants.
1. D1S
2. D1M
3. V24G
4. V24E
5. G21W

Ans.
1: -0.054; 2: 0.112; 3: -0.255; 4: -0.03; 5: -0.701

Need abundance fitness for each of these variants.
1. A2N
2. S31T
3. V18R
4. F36S
5. R37C
6. R26W

Ans.
1: 0.461; 2: 0.027; 3: -0.334; 4: -0.178; 5: -0.093; 6: -0.21
